Tested on: UMC-11
Assay overview: relative viability (nuclei count vs DMSO), 5 days (fraction); higher = more cells survive
Condition description: first compound 0.003162 µM
We begin with a simple list: items and their reported relative viability.

>  <Compound>
Cc1cn(-c2cc(NC(=O)c3ccc(C)c(Nc4nccc(-c5cccnc5)n4)c3)cc(C(F)(F)F)c2)cn1 [Nilotinib] + C[C@]1(O)C[C@@H](c2nc(-c3ccc4ccc(-c5ccccc5)nc4c3)c3c(N)nccn32)C1 [Linsitinib] (partner 1 µM)

>  <relative viability>
1.26

$$$$
>  <Compound>
Cc1cn(-c2cc(NC(=O)c3ccc(C)c(Nc4nccc(-c5cccnc5)n4)c3)cc(C(F)(F)F)c2)cn1 [Nilotinib] + N=C(N)NC(=N)NCCc1ccccc1 [Phenformin] (partner 250 µM)

>  <relative viability>
0.344

$$$$
>  <Compound>
Cc1cn(-c2cc(NC(=O)c3ccc(C)c(Nc4nccc(-c5cccnc5)n4)c3)cc(C(F)(F)F)c2)cn1 [Nilotinib] + COc1cccc2cc(-c3nc([C@H]4CC[C@H](C(=O)O)CC4)n4ncnc(N)c34)[nH]c12 [OSI-027] (partner 0.5 µM)

>  <relative viability>
0.527

$$$$
>  <Compound>
Cc1cn(-c2cc(NC(=O)c3ccc(C)c(Nc4nccc(-c5cccnc5)n4)c3)cc(C(F)(F)F)c2)cn1 [Nilotinib] + C[C@@H](Oc1cc(-c2cnn(C3CCNCC3)c2)cnc1N)c1c(Cl)ccc(F)c1Cl [Crizotinib] (partner 1 µM)

>  <relative viability>
0.525

$$$$
>  <Compound>
Cc1cn(-c2cc(NC(=O)c3ccc(C)c(Nc4nccc(-c5cccnc5)n4)c3)cc(C(F)(F)F)c2)cn1 [Nilotinib] + Cc1nc(Nc2ncc(C(=O)Nc3c(C)cccc3Cl)s2)cc(N2CCN(CCO)CC2)n1 [Dasatinib] (partner 0.075 µM)

>  <relative viability>
0.655

$$$$

* * *

We begin with a simple list: items and their reported relative viability.
System: RERF-LC-KJ
Assay overview: relative viability (nuclei count vs DMSO), 5 days (fraction); higher = more cells survive
Condition description: first compound 0.2 µM

>  <Compound>
CN1CCN(CCOc2cc(OC3CCOCC3)c3c(Nc4c(Cl)ccc5c4OCO5)ncnc3c2)CC1 [Saracatinib] + CC(=O)Nc1cccc(-n2c(=O)n(C3CC3)c(=O)c3c(Nc4ccc(I)cc4F)n(C)c(=O)c(C)c32)c1 [Trametinib] (partner 0.02 µM)

>  <relative viability>
0.869

$$$$
>  <Compound>
CN1CCN(CCOc2cc(OC3CCOCC3)c3c(Nc4c(Cl)ccc5c4OCO5)ncnc3c2)CC1 [Saracatinib] + CS(=O)(=O)N1CCN(Cc2cc3nc(-c4cccc5[nH]ncc45)nc(N4CCOCC4)c3s2)CC1 [Pictilisib] (partner 1 µM)

>  <relative viability>
0.521

$$$$

* * *

Test system: H3255
Assay overview: relative viability (nuclei count vs DMSO), 5 days (fraction); higher = more cells survive
Condition description: first compound 8 µM

>  <Compound>
Nc1cccc2c1CN(C1CCC(=O)NC1=O)C2=O (stereo unspecified) [Lenalidomide] + CC(=O)c1c(C)c2cnc(Nc3ccc(N4CCNCC4)cn3)nc2n(C2CCCC2)c1=O [Palbociclib] (partner 0.5 µM)

>  <relative viability>
0.314

$$$$
>  <Compound>
Nc1cccc2c1CN(C1CCC(=O)NC1=O)C2=O (stereo unspecified) [Lenalidomide] + O=C(c1cc(Cc2n[nH]c(=O)c3ccccc23)ccc1F)N1CCN(C(=O)C2CC2)CC1 [Olaparib] (partner 8 µM)

>  <relative viability>
0.614

$$$$
>  <Compound>
Nc1cccc2c1CN(C1CCC(=O)NC1=O)C2=O (stereo unspecified) [Lenalidomide] + C[C@]1(O)C[C@@H](c2nc(-c3ccc4ccc(-c5ccccc5)nc4c3)c3c(N)nccn32)C1 [Linsitinib] (partner 1 µM)

>  <relative viability>
0.871

$$$$
>  <Compound>
Nc1cccc2c1CN(C1CCC(=O)NC1=O)C2=O (stereo unspecified) [Lenalidomide] + Nc1ncn([C@H]2C[C@H](O)[C@@H](CO)O2)c(=O)n1 [Decitabine] (partner 2 µM)

>  <relative viability>
0.421

$$$$
>  <Compound>
Nc1cccc2c1CN(C1CCC(=O)NC1=O)C2=O (stereo unspecified) [Lenalidomide] + CC(=O)Nc1cccc(-n2c(=O)n(C3CC3)c(=O)c3c(Nc4ccc(I)cc4F)n(C)c(=O)c(C)c32)c1 [Trametinib] (partner 0.02 µM)

>  <relative viability>
0.541

$$$$
>  <Compound>
Nc1cccc2c1CN(C1CCC(=O)NC1=O)C2=O (stereo unspecified) [Lenalidomide] + CS(=O)(=O)CCNCc1ccc(-c2ccc3ncnc(Nc4ccc(OCc5cccc(F)c5)c(Cl)c4)c3c2)o1 [Lapatinib] (partner 2 µM)

>  <relative viability>
0.227

$$$$
